// reported apparent KD of K4 kissing-loop reporter per item
test system: K4 kissing-loop RNA reporter; test: apparent KD of K4 kissing-loop reporter; higher = weaker reporter binding; settings: Eterna round: R107; input ligand: FMN 200 uM
Answer with the number, then the unit.

For orientation, consider the following solved cases.
1. GCCAGAGCGCGAAGGAGCGCCGUGACAGGUUACUGCCUUGGGCAGUGAUGUUGCUCAAUCUGGCAGGUAGGUCGCGUGCUCUGGC | 179 nM
2. AUAAAUUUGUAGUGAUGUUGCAAGUUAGUCAAGGAUAUCAGGAAACUGAGAAGGUGAUAUCUCCUUUACUUGCAACUAGGAGGAG [KL-SSFMN-A11] | 88 nM

Reported apparent KD of K4 kissing-loop reporter for K4 kissing-loop RNA reporter, given UGUACCGAGUCAGGAUAUCAACGACUGACAAAGUCGGUCGAAUAUCCAGUGAUGUUGGAAAAUAAAUGAGAAGGGACUUGGUACU [FmnBS 12 #SwitchBubble #StaticStem] ?
137 nM

Reported apparent KD of K4 kissing-loop reporter for K4 kissing-loop RNA reporter, given GUAUCGCUAGGAGGAUAUUUCAAAUAAUAAAUAAAUGGAUAUACGGAGUGAUGUUCCGAUUUACGGAAAGAAGGCCUAGUGAUAC [FMN B 1] ?
136 nM

Reported apparent KD of K4 kissing-loop reporter for K4 kissing-loop RNA reporter, given CUUCUCCUUCCAAUCUCGGCCAACACGGGACGAGGACCGGUACGGCCGCCACUCGUGCAGUGAUGUUGCACGAUGGUGACGGAGA [Queronmaan] ?
95.7 nM

Reported apparent KD of K4 kissing-loop reporter for K4 kissing-loop RNA reporter, given AAAAGAAGAAGUGAUACCAGACAAGCAGUGAUGUUGCGCCAAAGUGAGUGAUGUUCACCAGUCCCUUGGCAGCACAUGCCAAAAG [Same State Theophylline B GF 5] ?
520 nM

----------
test system: MS2 coat protein; assay: apparent KD of MS2 coat protein; higher = weaker reporter binding; conditions: Eterna round: R107; input ligand: arginine 13.2 mM
measurement.kind: apparent KD of MS2 coat protein

For orientation, consider the following solved cases.
1) ACAUGAGGAUCACCCAUGUAUUACCGGGAAGGAGCGCGUAAGGACGCAGGUAGGUCGCUCGGCGUCUGGCCGCAAGGCUGGACGA [#1 Same State - Arginine A Attempt #18 (HarryS)] | 12.6 nM
2) CUCAUCCACGCGGCCGCCACUAUAUUGUGGUGUGAGUGUGACGUAUUACAUGAGGAUCACCCAUGUAGGACCGGGCGUGGAUGAG [#06 Exclusion Tryptophan B] | 30.9 nM

For GGGCUUGUGGUGCGGCGUGUUCCGCUCCGUCGAGGACCGGUACGGCCGCCACUCGACAUGAGGAUCACCCAUGUGCGAGCGCGCG [#1 Exclusion - Tryptophan A Attempt #7 (HarryS)] , what is its reported apparent KD of MS2 coat protein?
11.4 nM

For AAUAAUAAGGCGGCCGCCACUAAACAUGAGGAUCACCCAUGUCUCGAGCGCAUGCAUAAGGGAUGUAGGACCGGGCCAAUAAUAA [Exclusion - Tryptophan B (Freestyle 2)] , what is its reported apparent KD of MS2 coat protein?
22 nM

For GGAGUCGUCACGGCCGCCACUGCGGUGGUGUGACAUGAGGAUCACCCAUGUUGUCAUGCGGCCCUUAGGACCGGGUGUCGGUUCC [#1 Exclusion - Tryptophan B Attempt #23 (HarryS)] , what is its reported apparent KD of MS2 coat protein?
57.1 nM

----------
tested on: K4 kissing-loop RNA reporter; test: apparent KD of K4 kissing-loop reporter; higher = weaker reporter binding; details: Eterna round: R107; input ligand: arginine 13.2 mM;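 also: bound reporter read as fluorescence of individual clusters on recovered sequencing chips by microscopy, with normalized cluster intensities fitted with a binding model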
// reported apparent KD of K4 kissing-loop reporter per item
Output spec: scalar in nM, unitless text.

For orientation, consider the following solved cases.
1. GUUACGCAUGGAAGGAGCGCUCUCAUACUUAAUAACACAGUGAUGUUGUGAAUUUGUAUAAAGCAGGUAGGUCGCCAUGUGUAAC [Ex Arginine B K4 7] | 323
2. CGUUCCUCUGUCGAUACCAGCUUCAGUUGGCGGCCAGUGAUGUUGGUAUCGCCGAUGCCAAGCCCUUGGCAGCGACAUGAGAACC [Uslaessobi] | 166

Proceeding to the next sequence to report its apparent KD of K4 kissing-loop reporter.
Reported apparent KD of K4 kissing-loop reporter for K4 kissing-loop RNA reporter, given UAAUCCUAGUGAUAAUAAUCAAGUGGUGGGCGAGGACCGGUACGGCCGCCACUCGAAUAUGCAGUGAUGUUGUAAUCCGGAUAAU [Exclusion - Tryptophan A (Freestyle 6)] ?
926

----------
// reported apparent KD of MS2 coat protein per item
test system: MS2 coat protein; assay: apparent KD of MS2 coat protein; designed switch direction (-1 OFF switch, 1 ON switch): 1; higher = weaker reporter binding; conditions: input ligand: none

For UGGAUCUAGGCUUGCCUGGGUCCAUGCUGACAUGAGGAUCACCCAUGUGCAUCCUACAAGCUUUUUGCUUGUCAGUU (Eterna round: R96, puzzle: Sensor for hsa-mir-208a) , what is its reported apparent KD of MS2 coat protein?
289 nM

For AUAUGAGGAGCAGGAUAUGCGAAGAAGAAAGAAGUAGAAGGGCUCAUGGGACGACAUGAGGAUCACCCAUGUACUUCCCGAUGA [AK SSNG1-V2-7] (Eterna round: R96, puzzle: Same State NG 1) , what is its reported apparent KD of MS2 coat protein?
37.7 nM

For AGCCUGAGUCGAGGAUAUUAUGGAUCAAUUAAUACAUGAGGAUCACCCAUGUAAUUAAUUUAACAUGAGAAGGCGACUCAGGCA [SSNG2/10-A1] (Eterna round: R96, puzzle: Same State NG 2) , what is its reported apparent KD of MS2 coat protein?
8.66 nM

----------
system: MS2 coat protein; assay: apparent KD of MS2 coat protein; designed switch direction (-1 OFF switch, 1 ON switch): 1; higher = weaker reporter binding; settings: input ligand: microRNA oligo, concentration not stated
// reported apparent KD of MS2 coat protein per item
Output spec: scalar in nM, unitless text.

For orientation, consider the following solved cases.
1. UGUUGUUAAUUAGGAUAUGGUCACAUGAGGAUCACCCAUGUAAUGUCGAUGCUAUGUGGACACGAUCAGAAGGAAUGGCUAACA [SameState NG2 #93] (Eterna round: R96, puzzle: Same State NG 2) | 69.7
2. GUAGCAUACCGAGGAUAUUCAUAUUACAUGAGGAUCACCCAUGUUAUAUAGGCCAAAAGGCCUUGGGAGAAGGCGGAAUGCUAC [Xeonanis - 20 Mod9] (Eterna round: R96, puzzle: Same State NG 2) | 9.73
3. AUUAUUAAUGCAGGAUAUGAUUAACAUGAGGAUCACCCAUGUGGUGUUGUGAGUAAGGAGAGUGAUCAGAAGGGCAUUUCUUUU [JMF's solution 11] (Eterna round: R96, puzzle: Same State NG 2) | 241
4. UAGUUGGUGGUAGGAUAUGUAGGAUAUGGCGAGAGCUAAGCUUGGAAGUCACUUCAGCCAGAAGGACAGAAGGACCAGUAGCUU [pwkr ssNG2 2FMN + F9.10] (Eterna round: R96, puzzle: Same State NG 2) | 24.2
5. CCGUAAUAUGGAGGAUAUGGAGCCUUAUUGGCUCCAGAAGGUCAUAACACAUGAGGAUCACCCAUGUCGGCGGUCAAUAGACCG [Eli NG1ss - 76] (Eterna round: R96, puzzle: Same State NG 1) | 74.9

For AUUGCUAGCACAGGAUAUCAUGCGAAAAUUGCGUGAGAAGGGUGUACUCUGUCAUUGCCGGAGGACAUGAGGAUCACCCAUGUC [SameState NG1 #82] (Eterna round: R96, puzzle: Same State NG 1) , what is its reported apparent KD of MS2 coat protein?
33.6

For AUUAUACAUGAGGAUCACCCAUGUAAUUAAUCUAGUAAGAUCUAGGAUAUCAGCUCGUUUAGAGCUGAGAAGGAGAUCACAUGU [SSNG3/20-D3] (Eterna round: R96, puzzle: Same State NG 3) , what is its reported apparent KD of MS2 coat protein?
38

For UGCAUACGCCUACAAGAGGAGUCCUGCAGACAUGAGGAUCACCCAUGUAACUCGAAUUCAGUUCGUUCGUCUGUCGU [JR_hsamir208a_Sub1412] (Eterna round: R96, puzzle: Sensor for hsa-mir-208a) , what is its reported apparent KD of MS2 coat protein?
33.9

For AGCUAUUACGAAGGAUAUUGUGACAUGAGGAUCACCCAUGUUUUCAUGAUUUAUUGUGAUCACGUCGAGAAGGUUGUACUAACA [SameState NG2 #29] (Eterna round: R96, puzzle: Same State NG 2) , what is its reported apparent KD of MS2 coat protein?
50.8
